B1: Hairpin Ribozyme (parent)
chain: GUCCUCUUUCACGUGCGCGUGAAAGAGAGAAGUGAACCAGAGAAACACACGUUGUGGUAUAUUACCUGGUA

Variants of: B1
experimental.protocol: self-cleavage, relative activity (ratio to wild type); higher = more cleavage; co-transcriptional
Rule: self-cleavage under 0.2 gives N, otherwise Y.

{"mut": "C10A U62A", "label.class": "Y"}
{"mut": "C12G G40U", "label.class": "N"}
{"mut": "U2G A11G", "label.class": "Y"}
{"mut": "G34U U70C", "label.class": "Y"}
{"mut": "A36U A44C", "label.class": "N"}
{"mut": "U20C G27C", "label.class": "N"}
{"mut": "A36U C46G", "label.class": "N"}
{"mut": "G27U A47U", "label.class": "N"}
{"mut": "U14G A64G", "label.class": "Y"}
{"mut": "A44C A49U", "label.class": "N"}
{"mut": "G57U C65U", "label.class": "Y"}
{"mut": "C10A A59C", "label.class": "N"}
{"mut": "A35C G69A", "label.class": "Y"}
{"mut": "U2G A23C", "label.class": "Y"}
{"mut": "G1U U62G", "label.class": "N"}
{"mut": "C65U U67G", "label.class": "Y"}
{"mut": "G34U U58C", "label.class": "Y"}
{"mut": "C6U C12U", "label.class": "Y"}
{"mut": "A35C A49G", "label.class": "Y"}
{"mut": "C4A U62G", "label.class": "N"}
{"mut": "C37G U52C", "label.class": "Y"}
{"mut": "C18G C48A", "label.class": "N"}
{"mut": "U14C U67A", "label.class": "N"}
{"mut": "A35U G42C", "label.class": "Y"}
{"mut": "C6G A31G", "label.class": "Y"}
{"mut": "U33C U60C", "label.class": "N"}
{"mut": "U7A A36G", "label.class": "Y"}
{"mut": "C4A C66U", "label.class": "N"}
{"mut": "C4G G56C", "label.class": "N"}
{"mut": "G25A U63C", "label.class": "N"}
{"mut": "C37A", "label.class": "Y"}
{"mut": "A11G A26U", "label.class": "Y"}
{"mut": "A24U A64U", "label.class": "N"}
{"mut": "G1A G56A", "label.class": "N"}
{"mut": "C38U U60A", "label.class": "Y"}
{"mut": "U5G A26C", "label.class": "Y"}
{"mut": "C12U C65A", "label.class": "Y"}
{"mut": "U2G G25A", "label.class": "Y"}
{"mut": "C16U G56C", "label.class": "N"}
{"mut": "A26C G42A", "label.class": "N"}
{"mut": "C12U G19A", "label.class": "Y"}
{"mut": "A11U A43U", "label.class": "N"}
{"mut": "A39C C66U", "label.class": "Y"}
{"mut": "G40C U55A", "label.class": "N"}
{"mut": "G1A A45G", "label.class": "N"}
{"mut": "G21C A30C", "label.class": "Y"}
{"mut": "U5C A43U", "label.class": "N"}
{"mut": "U7G A26G", "label.class": "Y"}
{"mut": "A43C U53G", "label.class": "N"}
{"mut": "A11G A31C", "label.class": "N"}
{"mut": "G21U C50A", "label.class": "N"}
{"mut": "G34A A45G", "label.class": "Y"}
{"mut": "G21C A44G", "label.class": "N"}
{"mut": "C12G U63C", "label.class": "Y"}
{"mut": "U9A C10U", "label.class": "Y"}
{"mut": "G19A G21C", "label.class": "Y"}
{"mut": "U62C A64U", "label.class": "N"}
{"mut": "A24C U55A", "label.class": "Y"}
{"mut": "G34A G42A", "label.class": "Y"}
{"mut": "A23U A49U", "label.class": "N"}
{"mut": "U7A U63A", "label.class": "N"}
{"mut": "A11U A64C", "label.class": "N"}
{"mut": "C16A U63A", "label.class": "N"}
{"mut": "G1C C37G", "label.class": "N"}
{"mut": "A49U G56U", "label.class": "N"}
{"mut": "U2C G13A", "label.class": "Y"}
{"mut": "U14G G27A", "label.class": "N"}
{"mut": "G19C A49G", "label.class": "Y"}
{"mut": "A30C G51C", "label.class": "N"}
{"mut": "G17C A61G", "label.class": "Y"}
{"mut": "A44G U62G", "label.class": "Y"}
{"mut": "A11C A28G", "label.class": "Y"}
{"mut": "A22U A59G", "label.class": "N"}
{"mut": "A23G G32C", "label.class": "N"}
